The reported measurements were obtained from patent US12390437B2.

Assay: Mouse pharmacokinetic study, intravenous dosing
Format: in vivo
Conditions: male, C57BL/6, mouse, iv; plasma, 10 mg/kg i.v., time 0.25 h; read-out: Parent compound concentration following intravenous administration
assay endpoint: concentration at 0.25 h (ng/mL)

// below: answered molecules
>>> print(df.to_string())
                                   molecule           assay_endpoint  unit_annotation  result_number
0  C=C(CC(=O)O[C@@H](C)CCCCCC)C(=O)OCCc1nnn[nH]1 [Example 129]  concentration at 0.25 h            ng/mL            309
1  C=C(CC(=O)O[C@@H](C)CCCCCC)C(=O)OCc1nn[nH]n1 [Example 164]  concentration at 0.25 h            ng/mL            534
2  C=C(CC(=O)O[C@H](C)CCCCCC)C(=O)OCc1nn[nH]n1 [Example 161]  concentration at 0.25 h            ng/mL            846
3  C=C(CC(=O)OC(C)(C)CCCCC)C(=O)OCC(=O)O [Example 193]  concentration at 0.25 h            ng/mL           4040

[A] C=C(CC(=O)O[C@@H](CC)CCCCC)C(=O)OCC(=O)O [Example 170]
[B] C=C(CC(=O)OC1CCCCCCC1)C(=O)OCC(=O)O [Example 90]
[C] C=C(CC(=O)O[C@H](C)CCCCCC)C(=O)OCC(=O)O [Example 112]
Prompt: Ascending sort, concentration at 0.25 h. Provide the labels, sequenced as the question asks.
Response: B, A, C

[P] C=C(CC(=O)O[C@H]1C[C@H]2CC[C@]1(C)C2(C)C)C(=O)OCC(=O)O [Example 179]
[Q] C=C(CC(=O)O[C@@H](C)CCCCCC)C(=O)OCC(=O)O [Example 89]
[R] C=C(CC(=O)OC(C)(C)CCCCCC)C(=O)OCC(=O)O [Example 192]
[S] C=C(CC(=O)OC1CCCCC1)C(=O)OCc1nnn[nH]1 [Example 125]
[T] C=C(CC(=O)OC1CCCCCCC1)C(=O)OCc1nnn[nH]1 [Example 134]
Prompt: rank_up(items): orders items by reported concentration at 0.25 h in ascending numerical order. In your reply, arrange the labels in the requested order.
Response: S, P, T, Q, R
(S: 1070 ng/mL, P: 1810 ng/mL, T: 2890 ng/mL, Q: 7680 ng/mL, R: 11300 ng/mL)

[I] C=C(CC(=O)O[C@@H](CCCCCC)C(F)(F)F)C(=O)OCC(=O)O [Example 182]
[II] C=C(CC(=O)OCCCCCC)C(=O)OCC(=O)O [Example 94]
[III] C=C(CC(=O)O[C@H](C)CCCCCC)C(=O)OCCC(=O)O [Example 88]
Prompt: Could you please sort these 3 entries by concentration at 0.25 h from high to low? Rank them, then answer with their labels in that order.
Response: III, I, II

###

Test: Mouse pharmacokinetic study, oral administration
Assay type: in vivo
Details: male, C57BL/6, mouse, plasma, po, 100 mg/kg, plasma, male C57BL/6 mice, oral gavage 100 mg/kg, 0.083 h; read-out: Parent compound concentrations following oral administration, Time 0.083 h
Method: Pharmacokinetic studies were carried out in 6-8-week-old male C57BL/6 mice having free access to food and water. […] For both intravenous and oral routes, the mice were restrained manually at the designated time points, with ca. 110 μL of blood being taken into K2EDTA tubes via the facial vein. Blood samples were put on ice and centrifuged to obtain plasma samples from which the concentration at each time point was measured by LC-MS/MS.
assay endpoint: concentration at 0.083 h (µg/mL)

>>> print(df.to_string())
                                   compound  unit_annotation  result_number
0  C=C(CC(=O)O[C@@H](C)CCCCCC)C(=O)OCc1nn[nH]n1 [Example 164]            µg/mL           3.79
1  C=C(CC(=O)OC1CCCCCCC1)C(=O)OCCC(=O)O [Example 82]            µg/mL           27.5
2  C=C(CC(=O)OC(C)(C)CCCCCC)C(=O)OCC(=O)O [Example 192]            µg/mL             47
3  C=C(CC(=O)O[C@@H](CCCCCC)C(F)(F)F)C(=O)OCC(=O)O [Example 182]            µg/mL           65.9
4  C=C(CC(=O)OC1C(C)(C)CC1(C)C)C(=O)OCC(=O)O [Example 169]            µg/mL           37.8

[1] C=C(CC(=O)OC1CCCCCCC1)C(=O)OCc1nnn[nH]1 [Example 134]
[2] C=C(CC(=O)OC1CCCCC1)C(=O)OCc1nnn[nH]1 [Example 125]
Prompt: Choose between 1 and 2 : whose measured concentration at 0.083 h value is numerically larger? Returns: label corresponding to the selected item.
Response: 1

[1] C=C(CC(=O)OC1CCCCCCC1)C(=O)OC(C)c1nnn[nH]1 (stereo not drawn) [Example 133]
[2] C=C(CC(=O)O[C@@H](C)CCCCCC)C(=O)OCC(=O)O [Example 89]
Prompt: Which of these two has the smaller recorded concentration at 0.083 h: 1 or 2 ? Kindly give the label for the entry you pick.
Response: 1

[P] C=C(CC(=O)OC(CCCC)CCCC)C(=O)OCC(=O)O [Example 175]
[Q] C=C(CC(=O)OC1CCCCCCC1)C(=O)OCC(=O)O [Example 90]
[R] C=C(CC(=O)O[C@H](C)CCCCCC)C(=O)OCC(=O)O [Example 112]
[S] C=C(CC(=O)O[C@@H](C)CCCCCC)C(=O)OCCc1nnn[nH]1 [Example 129]
[T] C=C(CC(=O)O[C@H](C)CCCCCC)C(=O)OCc1nn[nH]n1 [Example 161]
Prompt: Task field, ranking: reported concentration at 0.083 h, descending order. Your reply should list the labels following the order given in the request.
Response: R, P, Q, T, S
(R: 79.8 µg/mL, P: 39.1 µg/mL, Q: 22.9 µg/mL, T: 7.02 µg/mL, S: 0.305 µg/mL)

[A] C=C(CC(=O)O[C@@H](CC)CCCCC)C(=O)OCC(=O)O [Example 170]
[B] C=C(CC(=O)OCCCCCC)C(=O)OCC(=O)O [Example 94]
[C] C=C(CC(=O)OC1CC2(CCC2)C1)C(=O)OCC(=O)O [Example 96]
Prompt: Parameters: sort_field (concentration at 0.083 h), sort_dir (desc). Order the labels as requested and list them.
Response: A, B, C
(A: 55 µg/mL, B: 27.8 µg/mL, C: 15.3 µg/mL)

###

Assay: Mouse pharmacokinetic study, oral administration
Assay type: in vivo
Details: male, C57BL/6, po; mouse plasma, Example 112 dosed orally at 100 mg/kg (Intermediate 8 = metabolite), time 8 h; read-out: Example 112 and Intermediate 8 concentrations following oral administration
Description: Pharmacokinetic studies were carried out in 6-8-week-old male C57BL/6 mice having free access to food and water. […] For both intravenous and oral routes, the mice were restrained manually at the designated time points, with ca. 110 μL of blood being taken into K2EDTA tubes via the facial vein. Blood samples were put on ice and centrifuged to obtain plasma samples from which the concentration at each time point was measured by LC-MS/MS.
assay endpoint: concentration at 8 h (ng/mL)

[P] C=C(CC(=O)O[C@H](C)CCCCCC)C(=O)OCC(=O)O [Example 112]
[Q] C=C(CC(=O)O[C@H](C)CCCCCC)C(=O)O [Intermediate 8]
Prompt: Between the entries labeled P and Q , whose measured concentration at 8 h is lower? In your reply, give the label of the chosen option.
Response: Q

###

Test: Mouse pharmacokinetic study, oral administration
Assay type: in vivo
Conditions: male, C57BL/6, mouse, plasma, po, 100 mg/kg, plasma, male C57BL/6 mice, oral gavage 100 mg/kg, 1 h; read-out: Parent compound concentrations following oral administration, Time 1 h
assay endpoint: concentration at 1 h (ng/mL)

Some entries whose results are on file:
In [3]: df
Out[3]:
                  compound_structure_string  result_number
0    C=C(CC(=O)OC1CC2(CCC2)C1)C(=O)OCC(=O)O           1550
1  C=C(CC(=O)O[C@H](C)CCCCCC)C(=O)OCCC(=O)O          12700
2     C=C(CC(=O)OC1CCCCC1)C(=O)OCc1nnn[nH]1           1430
3        C=C(CC(=O)OC1CCCCC1)C(=O)OCCC(=O)O           8520
4        C=C(CC(=O)OCCCCCCCC)C(=O)OCCC(=O)O            715

[P] C=C(CC(=O)OCCCOc1ccccc1)C(=O)OCCC(=O)O
[Q] C=C(CC(=O)OC(C)(C)CCCCC)C(=O)OCC(=O)O
[R] C=C(CC(=O)O[C@H](C)CCCCCC)C(=O)OCc1nn[nH]n1
[S] C=C(CC(=O)O[C@H](C)CCCCCC)C(=O)OCC(=O)O
[T] C=C(CC(=O)OCCCCCC)C(=O)OCC(=O)O
Prompt: Rank ascending by concentration at 1 h. Answer by listing the labels in the requested order.
Response: P, R, T, Q, S
